System: K562/DOX cells
Test: Enhancement of doxorubicin cytotoxicity on K562/DOX cells (MTT)
Assay type: cell-based, human
Conditions: doxorubicin 0.5 µM (IC20) + compound 3 µM, 72 h
Exercise: for every item that follows, state its recorded Cell Growth (%).
Could you give me the number in %? Just the number is fine.

Per the records, this molecule ( COc1cc(/C=C/C(=O)OCCCCCCCN(C)CCOC(=O)COc2ccc3ccc(=O)oc3c2)cc(OC)c1OC [Compound 7] ) has Cell Growth (%) equal to 78.1

Per the records, this molecule ( CN(CCCCCOC(=O)c1ccc(S(N)(=O)=O)cc1)CCCOC(=O)c1c2ccccc2cc2ccccc12 [Compound 26] ) has Cell Growth (%) equal to 77.9

Per the records, this molecule ( COc1cc(/C=C/C(=O)OCCCN(C)CCCCCOC(=O)COc2ccc3ccc(=O)oc3c2)cc(OC)c1OC [Compound 2] ) has Cell Growth (%) equal to 85.6

Per the records, this molecule ( COc1cc(/C=C/C(=O)OCCCCCCCN(C)CCOC(=O)c2ccc(S(N)(=O)=O)cc2)cc(OC)c1OC [Compound 21] ) has Cell Growth (%) equal to 78.8

Per the records, this molecule ( COc1ccc(CCN(C)CCCC(C#N)(c2ccc(OC)c(OC)c2)C(C)C)cc1OC (stereo not shown) [Ver, verapamil, reference compound] ) has Cell Growth (%) equal to 69.0

Per the records, this molecule ( COc1cc(/C=C/C(=O)OCCCCCCCN(C)CCCCCCCOC(=O)COc2ccc3ccc(=O)oc3c2)cc(OC)c1OC [Compound 8] ) has Cell Growth (%) equal to 82.0

Per the records, this molecule ( COc1cc(C(=O)OCCCCCCCN(C)CCOC(=O)c2ccc(S(N)(=O)=O)cc2)cc(OC)c1OC [Compound 25] ) has Cell Growth (%) equal to 80.3

====

Target: P-gp (Homo sapiens)
Construct: doxorubicin resistant K562/DOX cell line overexpresses almost exclusively the transporter membrane protein P-gp; endogenous in cells; host or cells: K562/DOX (doxorubicin-selected human erythroleukemia cells)
Sequence (P08183 whole entry): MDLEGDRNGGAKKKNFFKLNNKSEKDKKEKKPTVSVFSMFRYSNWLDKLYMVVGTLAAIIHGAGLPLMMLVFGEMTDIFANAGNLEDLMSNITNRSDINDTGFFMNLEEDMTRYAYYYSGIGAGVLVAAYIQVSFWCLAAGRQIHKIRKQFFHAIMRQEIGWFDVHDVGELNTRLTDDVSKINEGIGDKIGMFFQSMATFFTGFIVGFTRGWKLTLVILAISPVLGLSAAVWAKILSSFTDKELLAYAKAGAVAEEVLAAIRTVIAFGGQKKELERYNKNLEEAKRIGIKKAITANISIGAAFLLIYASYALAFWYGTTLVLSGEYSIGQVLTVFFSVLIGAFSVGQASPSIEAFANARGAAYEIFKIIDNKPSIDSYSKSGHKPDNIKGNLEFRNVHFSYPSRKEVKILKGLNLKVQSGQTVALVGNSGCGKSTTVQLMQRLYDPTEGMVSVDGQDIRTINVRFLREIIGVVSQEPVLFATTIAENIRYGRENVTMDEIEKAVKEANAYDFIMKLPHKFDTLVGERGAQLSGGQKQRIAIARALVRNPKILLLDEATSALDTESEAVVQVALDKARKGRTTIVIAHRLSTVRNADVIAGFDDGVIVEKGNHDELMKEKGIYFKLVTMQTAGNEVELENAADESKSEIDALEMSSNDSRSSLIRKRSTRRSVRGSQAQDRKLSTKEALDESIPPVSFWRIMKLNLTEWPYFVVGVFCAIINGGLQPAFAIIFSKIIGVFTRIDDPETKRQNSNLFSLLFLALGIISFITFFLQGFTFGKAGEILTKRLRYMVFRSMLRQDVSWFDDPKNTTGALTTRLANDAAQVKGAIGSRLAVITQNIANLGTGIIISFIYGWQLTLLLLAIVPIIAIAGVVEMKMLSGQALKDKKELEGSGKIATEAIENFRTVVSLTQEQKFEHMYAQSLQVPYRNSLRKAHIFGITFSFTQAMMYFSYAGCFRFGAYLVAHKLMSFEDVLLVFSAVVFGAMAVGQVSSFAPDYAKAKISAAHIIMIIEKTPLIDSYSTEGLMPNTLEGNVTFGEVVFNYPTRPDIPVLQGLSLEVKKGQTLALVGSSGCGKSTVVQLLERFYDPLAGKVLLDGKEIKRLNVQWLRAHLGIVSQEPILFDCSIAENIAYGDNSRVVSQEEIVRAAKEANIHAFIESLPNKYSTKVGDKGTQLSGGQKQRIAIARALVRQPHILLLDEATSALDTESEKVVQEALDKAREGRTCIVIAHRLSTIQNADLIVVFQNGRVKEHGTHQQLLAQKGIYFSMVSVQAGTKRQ
Experiment: Rhodamine-123 uptake test on K562/DOX cells (flow cytometry)
Type: cell-based
Conditions: compound 30 µM
attribute.measured: FR (fluorescence ratio, Rhd 123 uptake with/without modulator)
Kindly provide the number alone.

P-gp (Homo sapiens) data for `COc1cc(/C=C/C(=O)OCCCCCN(C)CCCOC(=O)COc2ccc3ccc(=O)oc3c2)cc(OC)c1OC` ; its FR (fluorescence ratio, Rhd 123 uptake with/without modulator): 2.58

P-gp (Homo sapiens) data for `CN(CCCCCOC(=O)COc1ccc2ccc(=O)oc2c1)CCCOC(=O)c1c2ccccc2cc2ccccc12` ; its FR (fluorescence ratio, Rhd 123 uptake with/without modulator): 2.53

P-gp (Homo sapiens) data for `COc1cc(/C=C/C(=O)OCCCCCCCN(C)CCOC(=O)c2ccc(S(N)(=O)=O)cc2)cc(OC)c1OC` ; its FR (fluorescence ratio, Rhd 123 uptake with/without modulator): 3.70

P-gp (Homo sapiens) data for `COc1cc(/C=C/C(=O)OCCCN(C)CCCOC(=O)c2ccc(S(N)(=O)=O)cc2)cc(OC)c1OC` ; its FR (fluorescence ratio, Rhd 123 uptake with/without modulator): 2.30

P-gp (Homo sapiens) data for `COc1cc(/C=C/C(=O)OCCCCCCCN(C)CCCCCCCOC(=O)COc2ccc3ccc(=O)oc3c2)cc(OC)c1OC` ; its FR (fluorescence ratio, Rhd 123 uptake with/without modulator): 4.15

P-gp (Homo sapiens) data for `COc1cc(C(=O)OCCCN(C)CCCCCOC(=O)c2ccc(S(N)(=O)=O)cc2)cc(OC)c1OC` ; its FR (fluorescence ratio, Rhd 123 uptake with/without modulator): 1.66

P-gp (Homo sapiens) data for `CN(CCCCCCOC(=O)c1c2ccccc2cc2ccccc12)CCCOC(=O)c1ccc(S(N)(=O)=O)cc1` ; its FR (fluorescence ratio, Rhd 123 uptake with/without modulator): 2.03

P-gp (Homo sapiens) data for `COc1cc(C(=O)OCCCN(C)CCCCCOC(=O)COc2ccc3ccc(=O)oc3c2)cc(OC)c1OC` ; its FR (fluorescence ratio, Rhd 123 uptake with/without modulator): 3.95

P-gp (Homo sapiens) data for `CN(CCCCCCOC(=O)c1c2ccccc2cc2ccccc12)CCCOC(=O)COc1ccc2ccc(=O)oc2c1` ; its FR (fluorescence ratio, Rhd 123 uptake with/without modulator): 2.45

Source of measurements: paper PMC7181201
